Origin of measurements: ChEMBL document CHEMBL4002578

# run_description: Cytotoxicity against human Caco2 cells measured after 72 hrs by MTT assay
# Assay type: cell-based
# test_context: Caco-2 cells
value_kind: CC50 at 72 h

compound | measurement
COC(=O)c1cc(O)cc(OC)c1Oc1c(Cl)c(C)c(Cl)c(O)c1C(=O)O [GEODIN HYDRATE] | > 800 µM
COC(=O)[C@]1(Cc2ccc3c(c2)CCC(C)(C)O3)OC(=O)C(O)=C1c1ccc(O)cc1 | > 800 µM
COc1cc(O)cc(C(=O)O)c1Oc1cc(C)cc(O)c1C(=O)O | > 800 µM
Cc1cc(O)c2c(c1)C(=O)c1cc(O)cc(O)c1C2=O | > 800 µM
CC1(C)CCc2cc(CC3=C(c4ccc(O)cc4)[C@@](O)(C(=O)O)OC3=O)ccc2O1 | > 800 µM
COC(=O)c1cc(O)cc(OC)c1Oc1c(Cl)c(C)c(Cl)c(O)c1C(=O)OC [METYL DICHLOROASTERRATE] | > 800 µM
CC1(C)CCc2cc(CC3OC(=O)C(O)=C3c3ccc(O)cc3)ccc2O1 (stereo not given) | > 800 µM
COC(=O)[C@@]1(O)OC(=O)C(Cc2ccc3c(c2)CCC(C)(C)O3)=C1c1ccc(O)cc1 | 278 µM

Data request: What value of CC50 at 72 h has been recorded for this entry: Cc1c(O)c(O)c(O)c(C=O)c1-c1cc2c(C=O)c(C)c(O)c(O)c2o1
Data returned: > 800 µM

Data request: What value of CC50 at 72 h has been recorded for this entry: CCOC(=O)[C@@]1(O)OC(=O)C(Cc2ccc3c(c2)CCC(C)(C)O3)=C1c1ccc(O)cc1
Data returned: 519 µM
